- target or system: PDE9 (Homo sapiens (Human))
- experiment notes: PDE9 inhibition assay
- Format: biochemical
measured property: inhibition at 10 µM (%)

Illustrative cases are given below, each with its answer.
molecule	inhibition at 10 µM (%)
COc1cccc(Cn2c(C)cn3c(C4CCOCC4)ncc3c2=O)c1 [Example 20]	-38
Cc1cn2c(C3CCOCC3)ncc2c(=O)n1C [Example 58]	36
CCc1cn2c(C3CCOCC3)ncc2c(=O)n1Cc1ccccc1 [Example 43]	6
Cc1cn2c(C3CCOCC3)ncc2c(=O)n1CC1CCCCC1 [Example 4]	-5
Cc1cn2c(C3CCOCC3)ncc2c(=O)n1Cc1ccc(O)cc1 [Example 53]	-41

P. Cc1cc(Cn2c(C)cn3c(C4CCOCC4)ncc3c2=O)no1 [Example 82]
Q. O=c1c2cnc(C3CCOCC3)n2cc(Cc2ccccc2)n1Cc1cccc(F)c1 [Example 2]
Ask: Lower value for measured inhibition at 10 µM? Options: P , Q Selection: enter the item's label.
Reply: Q

1. Cc1cn2c(C3(C)CC3)ncc2c(=O)n1Cc1cccc(F)c1 [Example 33]
2. COc1ccc(Cn2c(C)cn3c(C(C)(C)F)ncc3c2=O)cc1 [Example 87]
3. Cc1cn2c(C3CCOCC3)ncc2c(=O)n1CCC(C)C [Example 62]
Ask: Task for the reader: rank each entry by its inhibition at 10 µM, from the minimum upward. Answer format: list of labels, ordered as asked.
Reply: 1, 3, 2

---

- target or system: PDE1B (Homo sapiens (Human))
- experiment notes: PDE1 inhibition assay, PDE1B
- Assay type: biochemical
- measurement parameters: read-out: PDE1B, % inhibition (at 2 μM)
measured property: inhibition at 2 µM (%)

compound	target or system	obs value
O=c1c2cnc(C3CCOCC3)n2ccn1CC1CCCC1 [Example 10]	PDE1B (Homo sapiens (Human))	88
O=c1c2cnc(C3CC3)n2ccn1CC1CCCC1 [Example 7]	PDE1B (Homo sapiens (Human))	85
O=c1c2cnc(C3CCOCC3)n2ccn1Cc1cccc(F)c1 [Example 9]	PDE1B (Homo sapiens (Human))	90
O=c1c2cnc(C3CC3)n2ccn1Cc1cccc(F)c1 [Example 6]	PDE1B (Homo sapiens (Human))	81

---

Quick note: these are IC50 numbers for system: UniProt Q14123
measured property: IC50 (nM)

// worked examples, IC50 included
molecule	IC50 (nM)
COc1ccc(Cn2c(C)cn3c(C4COC(C)C4)ncc3c2=O)cc1 (centres unmarked)	303
Cc1cn2c([C@@H]3CCCCO3)ncc2c(=O)n1Cc1cccc(F)c1 (single isomer, unassigned; isomer 1) [30, isomer 1]	225
Cc1cn2c([C@H]3CCCCO3)ncc2c(=O)n1Cc1cccc(F)c1 (single isomer, unassigned; isomer 2) [30, isomer 2]	215

A. Cc1cn2c(C3CCOCC3)ncc2c(=O)n1Cc1ccccc1C#N
B. Cc1cn2c(C3CCOCC3)ncc2c(=O)n1Cc1ccsc1
Ask: # argmax over IC50 for candidates A and B Your answer should be the label of the entry you select.
Reply: A
(A: 103 nM, B: 15 nM)

P. COc1ccc(Cn2c(C)cn3c(C(C)c4nc(C)cs4)ncc3c2=O)cc1 (centres unmarked)
Q. Cc1cn2c(C3CCOCC3)ncc2c(=O)n1Cc1cccc(F)c1
R. Cc1cn2c(C3C[C@@H]3F)ncc2c(=O)n1Cc1cccc(F)c1 (single isomer, unassigned; isomer 2) [37, isomer 2]
S. Cc1cn2c(C3CCOCC3)ncc2c(=O)n1Cc1ccccc1F
Ask: Arrange the 4 entries by IC50 so the values rise. Answer format: the labels, in the requested order.
Reply: S, Q, P, R

a. Cc1cn2c(N3CCC4OCCC43)ncc2c(=O)n1Cc1cccc(F)c1 (single isomer, unassigned; isomer 1) [99, isomer 1]
b. O=c1c2cnc(C3CC3)n2ccn1CC1CCCCCC1
Ask: Quick one: lower IC50, a or b ? Give the label under which the chosen entry appears.
Reply: a
(a: 27 nM, b: 62 nM)

A. Cc1cn2c([C@H]3CCCOC3)ncc2c(=O)n1Cc1cccc(F)c1 (single isomer, unassigned; isomer 2) [100, isomer 2]
B. Cc1cn2c(C3(C#N)CCOCC3)ncc2c(=O)n1Cc1cccc(F)c1
C. Cc1cn2c(C3C[C@H]3F)ncc2c(=O)n1Cc1cccc(F)c1 (single isomer, unassigned; isomer 2) [38, isomer 2]
D. CO[C@H]1CC[C@H](Cn2c(C)cn3c(C4CCOCC4)ncc3c2=O)CC1
Ask: Rank descending by IC50. Present the labels in the sequence the task asks for.
Reply: D, C, B, A
(D: 1860 nM, C: 153 nM, B: 103 nM, A: 33 nM)

---

- target or system: PDE9 (Homo sapiens (Human), UniProt O76083)
- Sequence (O76083 whole entry): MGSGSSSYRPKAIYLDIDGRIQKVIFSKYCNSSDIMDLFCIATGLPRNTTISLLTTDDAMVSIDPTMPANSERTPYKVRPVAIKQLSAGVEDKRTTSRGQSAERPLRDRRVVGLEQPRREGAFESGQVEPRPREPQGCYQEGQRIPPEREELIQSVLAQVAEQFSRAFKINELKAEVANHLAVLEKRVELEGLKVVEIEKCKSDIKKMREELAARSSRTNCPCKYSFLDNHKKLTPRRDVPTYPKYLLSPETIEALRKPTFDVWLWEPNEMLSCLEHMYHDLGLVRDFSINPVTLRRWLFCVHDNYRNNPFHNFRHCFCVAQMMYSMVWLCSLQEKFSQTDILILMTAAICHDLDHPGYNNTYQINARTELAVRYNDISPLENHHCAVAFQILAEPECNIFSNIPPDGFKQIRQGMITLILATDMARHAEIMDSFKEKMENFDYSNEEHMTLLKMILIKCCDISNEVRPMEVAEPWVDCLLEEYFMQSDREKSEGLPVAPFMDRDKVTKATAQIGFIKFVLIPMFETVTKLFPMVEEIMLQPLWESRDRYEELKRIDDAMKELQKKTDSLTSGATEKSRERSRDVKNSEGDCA
- experiment notes: PDE9 inhibition assay
- Type: biochemical
measured property: inhibition at 10 µM (%)

As a guide, the following entries are already answered.
compound	inhibition at 10 µM, %
COc1ccc(Cn2c(C)cn3c(C4(C)CCN(S(N)(=O)=O)C4)ncc3c2=O)cc1 (centres unmarked)	20
Cc1cn2c(C3CCOCC3)ncc2c(=O)n1Cc1cccc(Cl)c1	31
Cc1cn2c(C3CCOCC3)ncc2c(=O)n1Cc1ccsc1	14

I. COc1ccc(Cn2c(C)cn3c(C4CCOCC4)ncc3c2=O)cc1Cl
II. Cc1cn2c(C3CCOCC3)ncc2c(=O)n1Cc1ccccc1Cl
Ask: Consider I and II . Which of these has its inhibition at 10 µM at a higher number? Returns: label corresponding to the selected item.
Reply: II

---

- target or system: PDE1A (Homo sapiens (Human), UniProt P54750)
- Sequence (P54750 whole entry): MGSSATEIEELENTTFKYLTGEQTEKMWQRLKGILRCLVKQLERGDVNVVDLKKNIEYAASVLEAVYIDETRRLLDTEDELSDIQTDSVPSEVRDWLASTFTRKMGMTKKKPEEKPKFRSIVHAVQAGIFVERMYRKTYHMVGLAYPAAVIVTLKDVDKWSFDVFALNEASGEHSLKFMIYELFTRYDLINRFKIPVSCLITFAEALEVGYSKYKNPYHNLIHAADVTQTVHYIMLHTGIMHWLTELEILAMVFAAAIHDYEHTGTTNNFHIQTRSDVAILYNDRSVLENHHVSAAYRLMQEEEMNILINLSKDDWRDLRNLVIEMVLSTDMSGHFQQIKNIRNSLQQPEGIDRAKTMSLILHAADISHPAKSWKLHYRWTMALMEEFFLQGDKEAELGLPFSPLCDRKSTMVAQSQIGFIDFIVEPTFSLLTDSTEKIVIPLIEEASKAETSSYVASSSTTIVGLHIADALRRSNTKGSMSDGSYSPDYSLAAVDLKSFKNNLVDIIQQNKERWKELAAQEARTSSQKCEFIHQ
- experiment notes: PDE1 inhibition assay, PDE1A
- Type: biochemical
- measurement parameters: read-out: PDE1A, % inhibition (at 2 μM)
measured property: inhibition at 2 µM (%)

entry smiles	inhibition at 2 µM, %
O=c1c2cnc(C3CC3)n2ccn1CC1CCCC1	60
O=c1c2cnc(C3CCOCC3)n2ccn1CC1CCCC1	73
O=c1c2cnc(C3CC3)n2ccn1Cc1cccc(F)c1	68
O=c1c2cnc(C3CCOCC3)n2ccn1Cc1cccc(F)c1	68

---

Reported IC50 values, PDE1C (Homo sapiens (Human), UniProt Q14123).
measured property: IC50 (nM)

compound	target or system	IC50 / nM
Cc1cn2c(C3CCOCC3)ncc2c(=O)n1C[C@H]1CC[C@H](C)CC1 [66, trans]	PDE1C (Homo sapiens (Human), UniProt Q14123)	46

a. Cc1nc(Cn2c(C)cn3c(C4CCOCC4)ncc3c2=O)cs1
b. Cc1cn2c(N3CCC4OCCC43)ncc2c(=O)n1Cc1cccc(F)c1 (single isomer, unassigned; isomer 2) [99, isomer 2]
c. COc1ccc(Cn2c(C)cn3c([C@@]4(C)C[C@@H]5CC[C@H]4O5)ncc3c2=O)cc1
Ask: Hey, quick one: sort these by IC50, largest value first please. Sort and list the labels as requested.
Reply: a, b, c
(a: 251 nM, b: 119 nM, c: 28 nM)

---

PDE1B (Homo sapiens (Human), UniProt Q01064): recorded pIC50 for assorted compounds
Sequence (Q01064 whole entry): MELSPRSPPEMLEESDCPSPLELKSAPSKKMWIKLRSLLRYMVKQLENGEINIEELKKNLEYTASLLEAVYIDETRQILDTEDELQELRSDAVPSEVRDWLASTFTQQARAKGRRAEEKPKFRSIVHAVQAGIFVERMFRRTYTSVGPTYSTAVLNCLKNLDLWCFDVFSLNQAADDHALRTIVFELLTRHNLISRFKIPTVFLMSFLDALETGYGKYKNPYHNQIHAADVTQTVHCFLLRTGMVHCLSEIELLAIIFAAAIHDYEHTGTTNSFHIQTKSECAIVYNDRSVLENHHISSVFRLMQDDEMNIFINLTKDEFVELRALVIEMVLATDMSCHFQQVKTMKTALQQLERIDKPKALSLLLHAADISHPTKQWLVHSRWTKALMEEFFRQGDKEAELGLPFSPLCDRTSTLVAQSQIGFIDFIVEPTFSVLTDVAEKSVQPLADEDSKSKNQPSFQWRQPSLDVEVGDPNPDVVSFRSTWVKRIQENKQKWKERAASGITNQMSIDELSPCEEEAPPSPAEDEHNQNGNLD
pIC50: −log10 of the molar value.
measured property: pIC50

Recorded pIC50, per entry:
compound	target or system	pIC50
COc1ccc(Cn2c(C)cn3c(C4CCOCC4C)ncc3c2=O)cc1 (stereo not drawn) [Example 69]	PDE1B (Homo sapiens (Human), UniProt Q01064)	8.10
Cc1cn2c(C3CCOCC3)ncc2c(=O)n1Cc1ccc2c(c1)OCO2 [Example 50]	PDE1B (Homo sapiens (Human), UniProt Q01064)	7.80
Cc1cn2c(C3CCOCC3)ncc2c(=O)n1Cc1ccccc1 [Example 16]	PDE1B (Homo sapiens (Human), UniProt Q01064)	7.24
CCCc1ncc2c(=O)n(Cc3cccc(F)c3)ccn12 [Example 1]	PDE1B (Homo sapiens (Human), UniProt Q01064)	6.10
Cc1cn2c(C3CCOCC3)ncc2c(=O)n1CC1CCCCCC1 [Example 65]	PDE1B (Homo sapiens (Human), UniProt Q01064)	8.22

A. Cc1cn2c(C3CCOCC3)ncc2c(=O)n1C[C@H]1CC[C@@H](C)CC1 [66, cis]
B. Cc1cn2c(C3CCOCC3)ncc2c(=O)n1Cc1ccc(OCC2CC2)cc1 [Example 42]
C. Cc1cn2c([C@H]3CCO[C@H]3C)ncc2c(=O)n1Cc1cccc(F)c1 (single isomer, unassigned; isomer 4) [36, isomer 4]
Ask: List from greatest to least pIC50. The labels, placed in the requested order, form the answer.
Reply: A, B, C

---

- target or system: UniProtKB O76083
- experiment notes: PDE9 inhibition assay
- Assay type: biochemical
measured property: inhibition at 10 µM (%)

compound	inhibition at 10 µM (%)
COc1ccc(Cn2c(C)cn3c(C4CCOCC4)ncc3c2=O)cc1	16
COc1ccc(Cn2c(C)cn3c(NC4CCOC4)ncc3c2=O)cc1 (centres unmarked)	-5
O=c1c2cnc(C3CC3)n2ccn1CC1CCCC1	1

1. COc1ccc(Cn2c(C)cn3c(C4(C)CNC(=O)C4)ncc3c2=O)cc1 (centres unmarked)
2. COc1ccc(Cn2c(C)cn3c(N4CCOC(C)(C)C4)ncc3c2=O)cc1
3. COc1ccc(Cn2c(C)cn3c([C@@H](C)c4ccccc4)ncc3c2=O)cc1
Ask: Sort entries by inhibition at 10 µM from minimum to maximum value. Enter labels, ranked according to the request.
Reply: 2, 1, 3

I. Cc1cn2c(C3CCOCC3)ncc2c(=O)n1Cc1cccc(C#N)c1
II. Cc1noc(C)c1Cn1c(C)cn2c(C3CCOCC3)ncc2c1=O
III. COc1ccc(Cn2c(C)cn3c(C4CCc5ccc(Cl)cc54)ncc3c2=O)cc1 (centres unmarked)
IV. Cc1cn2c(C3CCOCC3)ncc2c(=O)n1Cc1ccccc1C#N
Ask: List the 4 entries from lowest inhibition at 10 µM to highest inhibition at 10 µM value. Form entry: labels listed in requested order.
Reply: III, I, IV, II

I. Cc1ccc(Cn2c(C)cn3c(C4CCOCC4)ncc3c2=O)cc1
II. CCc1cn2c(C3CCOCC3)ncc2c(=O)n1Cc1ccc(OC)cc1
III. COc1ccc(Cn2c(C)cn3c(C(C)c4nc(C)cs4)ncc3c2=O)cc1 (centres unmarked)
Ask: Thanks in advance: please rank these 3 entries by inhibition at 10 µM, highest to lowest. When ranking, write the labels in the order the request describes.
Reply: I, II, III

The values you see were collected from patent US10858362B2.
